Tested on: OVCAR-4 (Ovarian Carcinoma)
Assay: combination Emax (second highest fraction inhibited in the dose matrix, 72 h); higher = more inhibition; extreme values may be limits of the assay
# maps each entry to its combination Emax
Lab note: record the figure alone, no unit after it.

[[record]]
molecule = "CN(C)CCCOc1ccc(-c2ccc3ncc4c(c3c2)n(C2CCOCC2)c(=O)n4C)cn1 [AZD0156] + C=CCn1c(=O)c2cnc(Nc3ccc(N4CCN(C)CC4)cc3)nc2n1-c1cccc(C(C)(C)O)n1 [AZD1775] (first compound max 1 µM, partner max 1 µM)"
experimental_value = 0.55

[[record]]
molecule = "CN(CCO)CC[C@H](CSc1ccccc1)Nc1ccc(S(=O)(=O)NC(=O)c2ccc(N3CCC([C@@H](O)c4ccccc4-c4ccc(Cl)cc4)CC3)cc2)cc1S(=O)(=O)C(F)(F)F [AZD4320] + C1CN(CCC1(C(=O)N[C@@H](CCO)C2=CC=C(C=C2)Cl)N)C3=NC=NC4=C3C=CN4 [Capivasertib] (first compound max 1 µM, 7x7, partner max 3 µM)"
experimental_value = 0.0826


Query molecule follows.
Incoming: combination Emax lookup needed for NC1(C(=O)N[C@@H](CCO)c2ccc(Cl)cc2)CCN(c2ncnc3[nH]ccc23)CC1 [Capivasertib] + CC(C)n1c(=O)n(C)c2cnc3cc(F)c(-c4ccc(OCCCN5CCCCC5)nc4)cc3c21 [AZD1390] (first compound max 10 µM, 7x7, partner max 0.3 µM) , thanks.
Outgoing: 0.162

----------
# maps each entry to its Bliss excess
Tested on: D-263MG (Glioblastoma)
Experiment: Bliss excess, mean over the matrix (fraction); higher = more synergy
Lab note: record the figure alone, no unit after it.

[[record]]
molecule = "CN(CCO)CC[C@H](CSc1ccccc1)Nc1ccc(S(=O)(=O)NC(=O)c2ccc(N3CCC([C@@H](O)c4ccccc4-c4ccc(Cl)cc4)CC3)cc2)cc1S(=O)(=O)C(F)(F)F [AZD4320] + C[C@@H](Nc1cc(F)cc(F)c1)c1cc(C(=O)N(C)C)cc2c(=O)cc(N3CCOCC3)oc12 [AZD8186] (first compound max 1 µM, 7x7, partner max 3 µM)"
experimental_value = 0.0288

[[record]]
molecule = "Cc1c2c(nn1C)CSCc1cc(n(C)n1)CSc1cc(c3ccccc3c1)OCCCc1c(C(=O)O)n(C)c3c-2c(Cl)ccc13 [AZD5991] + Cc1cc2ncnn2cc1Nc1ncc2c(n1)n(C1CCOCC1)c(=O)n2C [AZD7648] (first compound max 1 µM, 7x7, partner max 10 µM)"
experimental_value = 0.0046


Incoming: Entry COc1nnc2ccc(N3CCC(c4ccc(OCCN5CCN(C)C(=O)[C@H]5C)cc4)CC3)nn12 [AZD5153] + Cc1c2c(nn1C)CSCc1cc(n(C)n1)CSc1cc(c3ccccc3c1)OCCCc1c(C(=O)O)n(C)c3c-2c(Cl)ccc13 [AZD5991] (first compound max 1 µM, 7x7, partner max 1 µM) , system D-263MG (Glioblastoma): what Bliss excess was measured?
Outgoing: 0.105

----------
System: PANC-04-03 (Pancreatic Carcinoma)
Assay: Bliss excess, mean over the matrix (fraction); higher = more synergy
parameter.measured: Bliss excess
Lab note: record the figure alone, no unit after it.

Example molecules with recorded Bliss excess:
[[record]]
molecule = "CC(=O)Nc1cccc(-n2c(=O)n(C3CC3)c(=O)c3c(Nc4ccc(I)cc4F)n(C)c(=O)c(C)c32)c1 [Trametinib] + Cc1nc(-c2cn3c(n2)-c2ccc(-c4cnn(C(C)(C)C(N)=O)c4)cc2OCC3)n(C(C)C)n1 [Taselisib] (first compound max 1 µM, 7x7, partner max 10 µM)"
experimental_value = 0.101

[[record]]
molecule = "Cc1nc(-c2cn3c(n2)-c2ccc(-c4cnn(C(C)(C)C(N)=O)c4)cc2OCC3)n(C(C)C)n1 [Taselisib] + O=C(Nc1ccc2[nH]nc(-c3ccncc3)c2c1)[C@@H]1CCN(CC(=O)N2CCN(c3ccc(-c4ncccn4)cc3)CC2)C1 [SCH772984] (first compound max 10 µM, 7x7, partner max 5 µM)"
experimental_value = 0.0934

[[record]]
molecule = "CCN(CCO)CCCOc1ccc2c(Nc3cc(CC(=O)Nc4cccc(F)c4)[nH]n3)ncnc2c1 [AZD2811] + O=C(c1cc(Cc2n[nH]c(=O)c3ccccc23)ccc1F)N1CCN(C(=O)C2CC2)CC1 [Olaparib] (first compound max 1 µM, 7x7, partner max 10 µM)"
experimental_value = -0.0177

[[record]]
molecule = "C=CCn1c(=O)c2cnc(Nc3ccc(N4CCN(C)CC4)cc3)nc2n1-c1cccc(C(C)(C)O)n1 [AZD1775] + C[C@@H]1COCCN1C2=NC(=NC(=C2)C3(CC3)[S@](=N)(=O)C)C4=C5C=CNC5=NC=C4 [AZD6738] (first compound max 1 µM, partner max 10 µM)"
experimental_value = -0.025

[[record]]
molecule = "CN(CCO)CC[C@H](CSc1ccccc1)Nc1ccc(S(=O)(=O)NC(=O)c2ccc(N3CCC([C@@H](O)c4ccccc4-c4ccc(Cl)cc4)CC3)cc2)cc1S(=O)(=O)C(F)(F)F [AZD4320] + Cc1cc2ncnn2cc1Nc1ncc2c(n1)n(C1CCOCC1)c(=O)n2C [AZD7648] (first compound max 1 µM, 7x7, partner max 10 µM)"
experimental_value = -0.0556


Query molecule follows.
Incoming: Bliss excess lookup needed for Cc1c2c(nn1C)CSCc1cc(n(C)n1)CSc1cc(c3ccccc3c1)OCCCc1c(C(=O)O)n(C)c3c-2c(Cl)ccc13 [AZD5991] + CC1(C)CCC(CN2CCN(c3ccc(C(=O)NS(=O)(=O)c4ccc(NCC5CCOCC5)c([N+](=O)[O-])c4)c(Oc4cnc5[nH]ccc5c4)c3)CC2)=C(c2ccc(Cl)cc2)C1 [Venetoclax] (first compound max 1 µM, 7x7, partner max 1 µM) , thanks.
Outgoing: -0.0381
